experimentalContext: in n-propanol, 283.15 K

- chemicalString: "COc1ccc(C=O)cc1O"
  solubility (mole fraction): 0.0209

---

experimentalContext: in ethyl acetate, 313.15 K
assayReadout: solubility (mole fraction)

- chemicalString: "COc1ccc(C=O)cc1O"
  assayReadout: "solubility (mole fraction)"
  observed: 0.0655

---

experimentalContext: in isobutanol, 293.15 K

- chemicalString: "COc1ccc(C=O)cc1O"
  solubility (mole fraction): 0.0192

---

experimentalContext: in n-butanol, 283.15 K
assayReadout: solubility (mole fraction)

- chemicalString: "COc1ccc(C=O)cc1O"
  assayReadout: "solubility (mole fraction)"
  observed: 0.0149

All values here come from BigSolDB 2.1.
